target: MAP kinase-interacting serine/threonine-protein kinase 2 (Homo sapiens) (UniProt Q9HBH9); conditions: at 10 µM
Sequence (Q9HBH9 whole entry, looked up): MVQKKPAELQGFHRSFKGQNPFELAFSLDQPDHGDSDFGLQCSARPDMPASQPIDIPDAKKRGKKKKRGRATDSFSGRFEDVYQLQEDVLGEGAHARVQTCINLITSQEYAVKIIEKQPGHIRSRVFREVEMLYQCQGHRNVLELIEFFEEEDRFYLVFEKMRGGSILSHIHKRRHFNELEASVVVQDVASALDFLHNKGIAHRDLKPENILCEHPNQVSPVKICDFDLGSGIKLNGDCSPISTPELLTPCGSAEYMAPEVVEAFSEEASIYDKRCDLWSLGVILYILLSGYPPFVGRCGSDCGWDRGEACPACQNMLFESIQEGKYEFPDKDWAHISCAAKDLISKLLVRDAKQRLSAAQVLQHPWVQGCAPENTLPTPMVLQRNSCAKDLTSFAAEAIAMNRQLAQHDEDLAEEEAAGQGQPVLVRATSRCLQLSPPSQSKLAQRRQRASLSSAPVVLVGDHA
Reported metric: residual activity (%)
Field format: number, assumed %, no unit text.

Here is how some compounds turned out for residual activity.
| Structure as smiles | Reported metric | Output unit | Data value |
| --- | --- | --- | --- |
| CCN(CC)CCCCN1c2ccccc2Oc2ccc(Cl)cc21 | residual activity | % | 84 |
| Cc1nc(-c2ccccc2)c(-c2ccncc2)o1 | residual activity | % | 77 |

Asked: Specify residual activity for `NC(=O)c1ccc2[nH]c(-c3ccc(Oc4ccc(Cl)cc4)cc3)nc2c1` and stop.
Given back: 19

Asked: Provide only the value of recorded residual activity for `Nc1cccc(-c2cc3c(Oc4cccc(O)c4)ncnc3[nH]2)c1`
Given back: 20

Asked: Read the entry `Oc1ccc(-c2nc(-c3ccc(F)cc3)c(-c3ccncc3)[nH]2)cc1` and write its reported residual activity.
Given back: 94

Asked: Given the compound `Ic1cccc(CSc2nnc(-c3ccncc3)o2)c1` , write its reported residual activity.
Given back: 89

Asked: Consider the compound `O=C1NC(=O)/C(=C\c2ccc3nccnc3c2)S1` . State its measured residual activity.
Given back: 28

Asked: Give reported residual activity value for `Cn1cc(/C=C2\C(=O)Nc3ccc(S(N)(=O)=O)cc32)c2ccccc21`
Given back: 72

Asked: Return reported residual activity. Input compound: `Oc1n[nH]c2nnc(-c3c(-c4ccccc4)nn4ccccc34)cc12`
Given back: 99

Asked: // Input: `c1ccc2c(-c3ccncc3)c[nH]c2c1` . Output its residual activity only.
Given back: 9

---

biological target: Ephrin type-A receptor 7 (Homo sapiens) (UniProt Q15375); conditions: at 1 µM
Sequence (Q15375 28-998 limits assumed): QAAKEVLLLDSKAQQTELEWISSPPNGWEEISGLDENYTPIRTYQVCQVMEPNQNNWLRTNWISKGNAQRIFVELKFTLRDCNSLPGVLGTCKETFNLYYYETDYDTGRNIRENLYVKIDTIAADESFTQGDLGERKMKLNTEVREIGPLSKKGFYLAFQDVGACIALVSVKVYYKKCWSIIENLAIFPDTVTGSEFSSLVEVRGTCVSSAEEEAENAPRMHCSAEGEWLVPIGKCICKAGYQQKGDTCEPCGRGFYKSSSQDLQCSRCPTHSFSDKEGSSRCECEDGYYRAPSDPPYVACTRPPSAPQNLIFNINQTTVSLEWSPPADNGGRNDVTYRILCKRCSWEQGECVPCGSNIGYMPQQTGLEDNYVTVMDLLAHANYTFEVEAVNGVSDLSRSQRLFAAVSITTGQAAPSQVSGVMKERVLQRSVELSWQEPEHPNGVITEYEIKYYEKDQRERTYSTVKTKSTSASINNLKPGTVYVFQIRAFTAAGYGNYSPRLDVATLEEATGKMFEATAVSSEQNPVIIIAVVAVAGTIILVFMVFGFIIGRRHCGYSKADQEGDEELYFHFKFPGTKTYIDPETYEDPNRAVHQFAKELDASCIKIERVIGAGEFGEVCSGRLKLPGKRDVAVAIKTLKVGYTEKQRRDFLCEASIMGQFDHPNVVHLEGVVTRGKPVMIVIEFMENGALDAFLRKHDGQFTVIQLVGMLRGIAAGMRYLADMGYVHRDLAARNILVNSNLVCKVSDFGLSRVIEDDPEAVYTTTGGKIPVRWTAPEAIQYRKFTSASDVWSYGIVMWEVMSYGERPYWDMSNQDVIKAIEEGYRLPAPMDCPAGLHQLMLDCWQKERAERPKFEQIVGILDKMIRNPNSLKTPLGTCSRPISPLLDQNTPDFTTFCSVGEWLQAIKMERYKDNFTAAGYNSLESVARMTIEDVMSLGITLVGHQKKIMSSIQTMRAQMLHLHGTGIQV
Reported metric: residual activity (%)
Write it as a number; the unit % goes unstated.

Asked: Answer with residual activity of `Nc1cccc(-c2cc3c(Oc4cccc(O)c4)ncnc3[nH]2)c1` measured for Ephrin type-A receptor 7 (Homo sapiens) (UniProt Q15375).
Given back: 64

Asked: Report residual activity under test system Ephrin type-A receptor 7 (Homo sapiens) (UniProt Q15375) for `CC[n+]1c(/C=C/N(C)c2ccccc2)n(-c2ccccc2)c2ccc(-c3nc4ccccc4s3)cc21` .
Given back: 108

Asked: Recall the reported residual activity of `O=C(Nc1cccc(Nc2nccc(Nc3cccc(C(F)(F)F)c3)n2)c1)C1CC1` on Ephrin type-A receptor 7 (Homo sapiens) (UniProt Q15375) and write it down.
Given back: 81

Asked: Provide measured residual activity on Ephrin type-A receptor 7 (Homo sapiens) (UniProt Q15375) for `Ic1cccc(CSc2nnc(-c3ccncc3)o2)c1` please.
Given back: 88

Asked: Provide measured residual activity on Ephrin type-A receptor 7 (Homo sapiens) (UniProt Q15375) for `COc1cc2ncnc(Nc3ccc(Oc4ccccc4)cc3)c2cc1OC` please.
Given back: 102

---

target: Tyrosine-protein kinase FRK (Homo sapiens) (UniProt P42685); conditions: at 10 µM
Sequence (P42685 whole entry): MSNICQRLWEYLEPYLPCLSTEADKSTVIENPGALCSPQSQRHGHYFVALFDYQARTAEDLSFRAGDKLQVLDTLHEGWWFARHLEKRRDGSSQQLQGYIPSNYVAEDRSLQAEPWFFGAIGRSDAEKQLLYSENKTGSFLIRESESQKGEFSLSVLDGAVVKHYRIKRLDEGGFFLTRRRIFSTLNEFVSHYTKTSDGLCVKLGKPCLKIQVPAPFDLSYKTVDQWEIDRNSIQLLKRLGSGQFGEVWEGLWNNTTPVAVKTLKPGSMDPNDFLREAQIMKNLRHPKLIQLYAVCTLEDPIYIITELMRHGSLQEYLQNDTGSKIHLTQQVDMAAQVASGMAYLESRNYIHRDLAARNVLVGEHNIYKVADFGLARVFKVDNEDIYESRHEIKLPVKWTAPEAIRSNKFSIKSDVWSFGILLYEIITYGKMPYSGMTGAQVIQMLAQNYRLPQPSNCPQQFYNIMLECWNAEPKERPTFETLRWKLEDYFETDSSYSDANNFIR
Entries and their residual activity values follow.
Please state the figure in %; there is no need to write the unit.

| Structure as smiles | Test target | residual activity / % |
| --- | --- | --- |
| Ic1cccc(CSc2nnc(-c3ccncc3)o2)c1 | Tyrosine-protein kinase FRK (Homo sapiens) (UniProt P42685) | 78 |

Asked: State recorded residual activity with Tyrosine-protein kinase FRK (Homo sapiens) (UniProt P42685), entry `O=C1Nc2cc(Br)ccc2/C1=C1/Nc2ccccc2/C1=N\O` , no comment.
Given back: 0

Asked: Report the value of residual activity obtained on Tyrosine-protein kinase FRK (Homo sapiens) (UniProt P42685) for `Cc1ccc(S(=O)(=O)/C=C/C#N)cc1` .
Given back: 82

Asked: Give measured residual activity for `c1ccc(-c2n[nH]cc2-c2ccnc3ccccc23)nc1` (Tyrosine-protein kinase FRK (Homo sapiens) (UniProt P42685)).
Given back: 25

Asked: Output reported residual activity of the compound `Cc1cncc2cccc(S(=O)(=O)N3CCCN(C(=O)CN)C[C@H]3C)c12` on Tyrosine-protein kinase FRK (Homo sapiens) (UniProt P42685).
Given back: 70

Asked: Give residual activity only, for `Cc1cc(Nc2nc(-c3ccccc3)nc3ccccc23)n[nH]1` , using Tyrosine-protein kinase FRK (Homo sapiens) (UniProt P42685) data.
Given back: 8

Asked: Enter residual activity (test system Tyrosine-protein kinase FRK (Homo sapiens) (UniProt P42685)) for `Cn1cnc2cc3c(Nc4cccc(Br)c4)ncnc3cc21`
Given back: 28

Asked: System Tyrosine-protein kinase FRK (Homo sapiens) (UniProt P42685). Read-out residual activity. Item `CC#CC(=O)Nc1cc2c(Nc3ccc(F)c(Cl)c3)ncnc2cn1` . Report value.
Given back: 92

Asked: Specify residual activity for `COc1cc2ncnc(Nc3ccc(Oc4ccccc4)cc3)c2cc1OC` , system Tyrosine-protein kinase FRK (Homo sapiens) (UniProt P42685).
Given back: 7

Asked: Report the value of residual activity obtained on Tyrosine-protein kinase FRK (Homo sapiens) (UniProt P42685) for `Cc1cc2ncc(-c3ccccc3)nc2cc1C` .
Given back: 88

Asked: Jot down residual activity (Tyrosine-protein kinase FRK (Homo sapiens) (UniProt P42685)) of `CCC(=O)Nc1ccc2ncnc(Nc3cccc(Br)c3)c2c1` .
Given back: 59

Asked: Report residual activity on Tyrosine-protein kinase FRK (Homo sapiens) (UniProt P42685) for this entry: `O=C(O)c1ccc2c3c1cccc3c(=O)n1c3ccccc3nc21`
Given back: 90
